Source: patent US20250034167A1

biological target: His-tagged KRAS G12D protein (Homo sapiens, UniProt P01116, G12D); assay: biochemical
Sequence (P01116 1-188 isoform P01116-2 G12D): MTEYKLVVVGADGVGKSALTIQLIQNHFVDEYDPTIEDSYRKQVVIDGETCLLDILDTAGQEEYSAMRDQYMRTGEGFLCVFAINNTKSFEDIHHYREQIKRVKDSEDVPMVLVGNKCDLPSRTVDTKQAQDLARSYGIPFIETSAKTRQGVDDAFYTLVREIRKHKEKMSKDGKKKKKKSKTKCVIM
Each record here notes measured log10(IC50).
outcome-measure: log10(IC50) (log10 of the value in nM)

>>> value_reported("CCc1c(F)ccc2cc(O)cc(-c3ncc4c(N5CC6CC(O)C(C6)C5)nc(OC[C@@]56CCCN5C[C@H](F)C6)nc4c3F)c12 (single isomer, unassigned) [Example 24]")
0.30
>>> value_reported("CCc1c(F)ccc2cc(O)cc(-c3ncc4c(N5C[C@H]6CC[C@@H]5C(O)C6)nc(OC[C@@]56CCCN5C[C@H](F)C6)nc4c3F)c12 (some centres unmarked)")
1.58
>>> value_reported("CCc1c(F)ccc2cc(O)cc(-c3ncc4c(N5CCCC[C@@H](N)C5)nc(OC[C@@]56CCCN5C[C@H](F)C6)nc4c3F)c12")
0.60
>>> value_reported("CCc1c(F)ccc2cc(O)cc(-c3ncc4c(N5CC(C)CC(C(N)=O)C5)nc(OC[C@@]56CCCN5C[C@H](F)C6)nc4c3F)c12 (single isomer, unassigned) [Example 164]")
0.48
>>> value_reported("CCc1c(F)ccc2cc(O)cc(-c3ncc4c(N5C[C@H]6OCC[C@H]65)nc(OC[C@@]56CCCN5C[C@H](F)C6)nc4c3F)c12 (relative stereo)")
1.51
